Would you kindly list protein stability index for each of these variants?
B1: RHOBTB3 (parent)
chain: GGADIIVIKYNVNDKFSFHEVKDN

Variants of: B1
Experiment: protein stability index of a GFP-peptide fusion (GPS, HEK-293T) (PSI 1-6); higher = more stable;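 also: lentivirally expressed fusions sorted by FACS into six bins by GFP to DsRed ratio, PSI derived from sequencing read proportions per bin multiplied by bin number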
Settings: c terminus: a fixed tail appended
Lab note: write the figure by itself, no unit.

Input line: Return value of protein stability index for input "I5F" , no commentary.
Output line: 1.78

Input line: Return value of protein stability index for input "N24A" , no commentary.
Output line: 2.09

Input line: Return value of protein stability index for input "N13P" , no commentary.
Output line: 3.19

Input line: Return value of protein stability index for input "S17C" , no commentary.
Output line: 2.27

Input line: Return value of protein stability index for input "N13W" , no commentary.
Output line: 1.96

Input line: Return value of protein stability index for input "G2L" , no commentary.
Output line: 1.71

Input line: Return value of protein stability index for input "K15V" , no commentary.
Output line: 3.95

Input line: Return value of protein stability index for input "K22Y" , no commentary.
Output line: 3.11

Input line: Return value of protein stability index for input "K9W" , no commentary.
Output line: 3.44

Input line: Return value of protein stability index for input "G1K" , no commentary.
Output line: 2.99

Input line: Return value of protein stability index for input "D14I" , no commentary.
Output line: 4.53

Input line: Return value of protein stability index for input "V7P" , no commentary.
Output line: 4.13

Input line: Return value of protein stability index for input "N11G" , no commentary.
Output line: 3.11

Input line: Return value of protein stability index for input "I6M" , no commentary.
Output line: 1.92

Input line: Return value of protein stability index for input "N11M" , no commentary.
Output line: 3.72

Input line: Return value of protein stability index for input "A3F" , no commentary.
Output line: 3.37

Input line: Return value of protein stability index for input "F16Q" , no commentary.
Output line: 1.85

Input line: Return value of protein stability index for input "D23L" , no commentary.
Output line: 3.42

Input line: Return value of protein stability index for input "D23S" , no commentary.
Output line: 2.21

Input line: Return value of protein stability index for input "D14S" , no commentary.
Output line: 3.4

Input line: Return value of protein stability index for input "K22P" , no commentary.
Output line: 3.07

Input line: Return value of protein stability index for input "A3I" , no commentary.
Output line: 3.1

Input line: Return value of protein stability index for input "Y10F" , no commentary.
Output line: 2.26

Input line: Return value of protein stability index for input "V12I" , no commentary.
Output line: 3.31

Input line: Return value of protein stability index for input "S17Q" , no commentary.
Output line: 2.36

Input line: Return value of protein stability index for input "F16S" , no commentary.
Output line: 3.13

Input line: Return value of protein stability index for input "N24E" , no commentary.
Output line: 1.44

Input line: Return value of protein stability index for input "Y10I" , no commentary.
Output line: 4.15

Input line: Return value of protein stability index for input "I6Y" , no commentary.
Output line: 2.23

Input line: Return value of protein stability index for input "A3E" , no commentary.
Output line: 1.74

Input line: Return value of protein stability index for input "K9G" , no commentary.
Output line: 3.78

Input line: Return value of protein stability index for input "N11Q" , no commentary.
Output line: 3.46

Input line: Return value of protein stability index for input "I5Q" , no commentary.
Output line: 3.45

Input line: Return value of protein stability index for input "G2D" , no commentary.
Output line: 2.31

Input line: Return value of protein stability index for input "F16W" , no commentary.
Output line: 4.02

Input line: Return value of protein stability index for input "G2V" , no commentary.
Output line: 1.64

Input line: Return value of protein stability index for input "V7L" , no commentary.
Output line: 2.3

Input line: Return value of protein stability index for input "D4F" , no commentary.
Output line: 1.97

Input line: Return value of protein stability index for input "I5C" , no commentary.
Output line: 1.74

Input line: Return value of protein stability index for input "I6R" , no commentary.
Output line: 3.1

Input line: Return value of protein stability index for input "G1T" , no commentary.
Output line: 2.99

Input line: Return value of protein stability index for input "D23V" , no commentary.
Output line: 2.83

Input line: Return value of protein stability index for input "V21D" , no commentary.
Output line: 1.3

Input line: Return value of protein stability index for input "K9L" , no commentary.
Output line: 2.84

Input line: Return value of protein stability index for input "F18S" , no commentary.
Output line: 1.86

Input line: Return value of protein stability index for input "Y10D" , no commentary.
Output line: 3.68

Input line: Return value of protein stability index for input "Y10H" , no commentary.
Output line: 1.92

Input line: Return value of protein stability index for input "F18Q" , no commentary.
Output line: 1.99

Input line: Return value of protein stability index for input "K9I" , no commentary.
Output line: 4.01

Input line: Return value of protein stability index for input "V12S" , no commentary.
Output line: 1.9

Input line: Return value of protein stability index for input "N11S" , no commentary.
Output line: 2.23

Input line: Return value of protein stability index for input "S17G" , no commentary.
Output line: 2.54

Input line: Return value of protein stability index for input "N11T" , no commentary.
Output line: 2.43

Input line: Return value of protein stability index for input "A3Y" , no commentary.
Output line: 2.96

Input line: Return value of protein stability index for input "N24T" , no commentary.
Output line: 4.04

Input line: Return value of protein stability index for input "G2Y" , no commentary.
Output line: 2.69

Input line: Return value of protein stability index for input "F18T" , no commentary.
Output line: 2.63

Input line: Return value of protein stability index for input "S17E" , no commentary.
Output line: 2.94

Input line: Return value of protein stability index for input "G2S" , no commentary.
Output line: 1.62

Input line: Return value of protein stability index for input "A3M" , no commentary.
Output line: 2.03

Input line: Return value of protein stability index for input "D14T" , no commentary.
Output line: 2.67

Input line: Return value of protein stability index for input "K15Y" , no commentary.
Output line: 2.75

Input line: Return value of protein stability index for input "V12E" , no commentary.
Output line: 1.72

Input line: Return value of protein stability index for input "N13R" , no commentary.
Output line: 1.99

Input line: Return value of protein stability index for input "I6L" , no commentary.
Output line: 3.33

Input line: Return value of protein stability index for input "A3T" , no commentary.
Output line: 2.21

Input line: Return value of protein stability index for input "K15C" , no commentary.
Output line: 4.37

Input line: Return value of protein stability index for input "G2A" , no commentary.
Output line: 1.69

Input line: Return value of protein stability index for input "G2P" , no commentary.
Output line: 1.52

Input line: Return value of protein stability index for input "Y10M" , no commentary.
Output line: 1.94

Input line: Return value of protein stability index for input "N11A" , no commentary.
Output line: 2.36

Input line: Return value of protein stability index for input "V7C" , no commentary.
Output line: 1.79

Input line: Return value of protein stability index for input "V7N" , no commentary.
Output line: 2.85

Input line: Return value of protein stability index for input "I5L" , no commentary.
Output line: 3.18

Input line: Return value of protein stability index for input "K15S" , no commentary.
Output line: 2.73

Input line: Return value of protein stability index for input "I8A" , no commentary.
Output line: 1.78

Input line: Return value of protein stability index for input "K9H" , no commentary.
Output line: 3.31

Input line: Return value of protein stability index for input "F16T" , no commentary.
Output line: 2.33

Input line: Return value of protein stability index for input "N24M" , no commentary.
Output line: 3.25

Input line: Return value of protein stability index for input "E20R" , no commentary.
Output line: 2.93

Input line: Return value of protein stability index for input "D4H" , no commentary.
Output line: 2.21

Input line: Return value of protein stability index for input "G2C" , no commentary.
Output line: 1.97

Input line: Return value of protein stability index for input "F18D" , no commentary.
Output line: 2.26

Input line: Return value of protein stability index for input "V12Q" , no commentary.
Output line: 2.3

Input line: Return value of protein stability index for input "I5A" , no commentary.
Output line: 1.81

Input line: Return value of protein stability index for input "V7T" , no commentary.
Output line: 1.6

Input line: Return value of protein stability index for input "K22T" , no commentary.
Output line: 2.58

Input line: Return value of protein stability index for input "I6C" , no commentary.
Output line: 1.67

Input line: Return value of protein stability index for input "H19F" , no commentary.
Output line: 3.33

Input line: Return value of protein stability index for input "I5P" , no commentary.
Output line: 3.58

Input line: Return value of protein stability index for input "K15P" , no commentary.
Output line: 2.59
